Values were extracted from patent US20020103111A1.

target: human α4β7 integrin (human), P13612; test: inhibition of HUT 78 cell adhesion to murine MAdCAM-1/mCk
Ends that are not written are not given here.
Quantity Measured: IC50 (µM)
Express your answer in µM, writing the number without its unit.

Note IC50 for the binder shown: LATSL (modifications not checked) [Pba-Leu-Ala-Thr-Ser-Leu] 28

Note IC50 for the binder shown: Ac-GLDTS (not fully specified (C-terminus); printed as Ac-Gly-Leu-Asp-Thr-Ser) [Ac-Gly-Leu-Asp-Thr-Ser] 745

Note IC50 for the binder shown: Ac-LDTTL (not fully specified (C-terminus); printed as Ac-Leu-Asp-Thr-Thr-Leu) [Ac-Leu-Asp-Thr-Thr-Leu] 101

Note IC50 for the binder shown: Ac-WRGLDTS (not fully specified (C-terminus); printed as Ac-Trp-Arg-Gly-Leu-Asp-Thr-Ser) [Ac-Trp-Arg-Gly-Leu-Asp-Thr-Ser] 862

Note IC50 for the binder shown: Ac-LDVSL (not fully specified (C-terminus); printed as Ac-Leu-Asp-Val-Ser-Leu) [Ac-Leu-Asp-Val-Ser-Leu] 71

Note IC50 for the binder shown: Ac-RGLDTS (not fully specified (C-terminus); printed as Ac-Arg-Gly-Leu-Asp-Thr-Ser) [Ac-Arg-Gly-Leu-Asp-Thr-Ser] 1790

Note IC50 for the binder shown: Ac-LDSSL (not fully specified (C-terminus); printed as Ac-Leu-Asp-Ser-Ser-Leu) [Ac-Leu-Asp-Ser-Ser-Leu] 611

Note IC50 for the binder shown: Ac-GLDTSL (not fully specified (C-terminus); printed as Ac-Gly-Leu-Asp-Thr-Ser-Leu) [Ac-Gly-Leu-Asp-Thr-Ser-Leu] 339
